ASSAY_TARGET: hPOT1
ASSAY: Electrophoretic mobility shift assay, POT1/22AG binding
APPLIED_CONDITIONS: 30 nM hPOT1, 20 nM 32P-22AG, 30 min room temperature
Procedure: An electrophoretic mobility shift assay using hPOT1 was performed on the telomeric 22AG oligonucleotide (see above). 22AG was labeled at the 5′ end with [γ-^32P]-ATP using T4 polynucletide kinase. Purified recombinant hPOT1 was produced in a baculovirus expression system. […] Analysis of the data was carried out by ImageQuant software (Amersham) and results were expressed as a percentage of the POT1-22AG complex obtained in the untreated control (defined as 100%) (see FIG. 14).
REPORTED_PROPERTY: pIC50
The scale used: pIC50 is minus the common logarithm of the concentration in molar units.

Ask: Report measured pIC50; entry is `c1cc(-c2cnc(-c3cccc(-c4cnco4)n3)o2)nc(-c2cnc(-c3cccc(-c4cnco4)n3)o2)c1`
Reply: 6.52

====

Collected melting point values appear next to each entry.

Ask: Please supply the value of reported melting point for the item `c1cc(-c2cnc(-c3cccc(-c4cnco4)n3)o2)cc(-c2cnc(-c3cccc(-c4cnco4)n3)o2)c1`
Reply: > 250 °C

Ask: Look up and state reported melting point for `c1cc(-c2cnc(-c3ccc(-c4cnco4)o3)o2)nc(-c2cnc(-c3ccc(-c4cnco4)o3)o2)c1`
Reply: > 250 °C

Ask: Provide only the value of recorded melting point for `c1cc(-c2cnco2)cc(-c2ncc(-c3cccc(-c4cnc(-c5cccc(-c6cnco6)c5)o4)n3)o2)c1`
Reply: 254 to 256 °C

New cases:
Ask: In one line, give reported melting point of the entry `c1cc(-c2cnc(-c3cccc(-c4cnco4)n3)o2)nc(-c2cnc(-c3cccc(-c4cnco4)n3)o2)c1` .
Reply: > 250 °C

Ask: Tell me measured melting point for `c1ccc(-c2ncc(-c3cccc(-c4cnc(-c5ccccn5)o4)n3)o2)nc1` please.
Reply: 242 to 245 °C
